- Tested on: SF-295 CNS
- Test description: NCI-60 one-dose screen, 48 h
- Test parameters: 10 µM unless noted
This is part of a sample that, as a whole, favours compounds with a hit. Of some 83,000 tested, about 20% had one in any assay. The source made the active and inactive calls. Rule for the calls: active = growth percent below 10; inactive = the rest.
One label from this list, please: TRUE = active, FALSE = inactive

- Molecule: "Oc1cccc(-c2nc(N3CCOCC3)c3c4c(sc3n2)CCCC4)c1"
  Assay target: "SF-295 CNS"
  Qualitative label: "FALSE"
- Molecule: "CCOc1nc(-c2ccccc2)cc2c(O)c(C(=O)N/N=C/c3ccc(O)cc3O)[nH]c(=O)c12"
  Assay target: "SF-295 CNS"
  Qualitative label: "FALSE"
- Molecule: "N#Cc1nnn(-c2ccc(S(N)(=O)=O)cc2)c1NCC(=O)c1ccccc1"
  Assay target: "SF-295 CNS"
  Qualitative label: "FALSE"
- Molecule: "O=C1c2cc3c(cc2-c2c1c1ccc(F)cc1c(=O)n2C[C@H](O)[C@H](O)[C@H](O)CO)OCO3"
  Assay target: "SF-295 CNS"
  Qualitative label: "TRUE"
- Molecule: "Cc1ccc(C2Oc3ccccc3C3CC(c4cccs4)=NN32)cc1 (stereo unspecified)"
  Assay target: "SF-295 CNS"
  Qualitative label: "FALSE"

Turning now to a further molecule:
*Q* Recorded test call requested for CC(C)(CCCN=C(N)Nc1ccc(Cl)cc1)c1ccc(F)cc1
*A* FALSE

----------
- Tested on: HCT-15 colon
- Test description: NCI-60 one-dose screen, 48 h (100 = growth as untreated, 0 = no growth, -100 = all killed)
- Test parameters: 10 µM unless noted
The panel holds about 83,000 compounds, 20% with a hit somewhere; the sample as a whole holds those more often.
With a cut-off of 90%, any growth strictly below it is called 1.0; any growth meeting it or above is called 0.0.

Examples with answers:
- Molecule: "CCOc1nc(-c2ccccc2)cc2c(O)c(C(=O)O)[nH]c(=O)c12"
  Qualitative label: 0.0
- Molecule: "CC(O)CN(CC(C)O)c1ccc2c(c1)Cc1cc([N+](=O)[O-])ccc1-2 (stereo not given)"
  Qualitative label: 1.0
- Molecule: "Cc1ccc2c(C(C[N+](=O)[O-])c3ccccc3F)c(-c3ccccc3)[nH]c2c1 (stereo not given)"
  Qualitative label: 1.0
- Molecule: "CCC([N+](=O)[O-])S(=O)(=O)c1ccc(C)cc1 (stereo not given)"
  Qualitative label: 0.0
- Molecule: "CCOC(=O)c1c(C(=O)OCC)c2cc(-c3ccn4c(C(=O)c5ccccc5)c(C(=O)OCC)c(C(=O)OCC)c4c3)ccn2c1C(=O)c1ccccc1"
  Qualitative label: 0.0
- Molecule: "COc1cccc2c1C(=O)c1c(O)c3c(c(O)c1C2=O)C[C@](O)(C(=O)CO)C[C@H]3O[C@@H]1C[C@@H](NC(=O)CCCCCN(C)C2(c3ccc(F)cc3)CC3CCC2C3)[C@H](O)[C@@H](C)O1 (stereo not given in full)"
  Qualitative label: 1.0
- Molecule: "O=C1NC(=S)N[C@H]1CC(=O)n1cnc2ccccc21"
  Qualitative label: 0.0

With those in mind, consider the next molecule.
*Q* Problem: For the molecule NC(=O)c1cc(Br)ccc1NC(=O)/C=C/c1ccccc1 , is growth under 90%?
*A* 1.0
